target: Glc(a1-6)Glc(a1-6)Glc; assay: glycan array binding signal (z-score within array); higher = stronger binding; settings: glycan notation: IUPAC condensed, linker removed
This excerpt belongs to a sample that is enriched for the strongest signals.
Kindly supply the reported glycan array binding signal (z-score) values for the records listed here.
Lab note: jot down the number only; don't add units.

The binder listed as Tamarinin (protein) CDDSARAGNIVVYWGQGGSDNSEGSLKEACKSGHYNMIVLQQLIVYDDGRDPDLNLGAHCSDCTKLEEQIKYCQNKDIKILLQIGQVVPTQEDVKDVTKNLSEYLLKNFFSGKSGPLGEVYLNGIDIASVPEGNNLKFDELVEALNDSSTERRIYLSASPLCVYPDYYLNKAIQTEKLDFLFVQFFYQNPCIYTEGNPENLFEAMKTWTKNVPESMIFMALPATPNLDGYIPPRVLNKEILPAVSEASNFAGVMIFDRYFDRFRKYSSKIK shows glycan array binding signal (z-score) equal to -0.034

binder Dectin-1 (Mus musculus), Q6QLQ4 (protein) GHNSGRNPEEKDNFLSRNKENHKPTESSLDEKVAPSKASQTTGGFSQPCLPNWIMHGKSCYLFSFSGNSWYGSKRHCSQLGAHLLKIDNSKEFEFIESQTSSHRINAFWIGLSRNQSEGPWFWEDGSAFFPNSFQVRNTAPQESLLHNCVWIHGSEVYNQICNTSSYSICEKEL , glycan array binding signal (z-score) observed: -0.113

Record summary for EULS2 M4 (Oryza sativa) (protein) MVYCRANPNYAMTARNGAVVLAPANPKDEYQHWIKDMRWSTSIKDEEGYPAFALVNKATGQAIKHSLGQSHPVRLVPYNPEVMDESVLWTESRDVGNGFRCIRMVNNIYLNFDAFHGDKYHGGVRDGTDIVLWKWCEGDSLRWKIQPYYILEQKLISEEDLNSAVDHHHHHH : reported glycan array binding signal (z-score) = 0.287
